Below, each entry is listed with its recorded Affinity ELISA CPE mutant ratio (1:3, pH 6.0/7.4).
- Experimental target: T1, Axl protein (human, UniProt P30530 26-451)
- T1 construct: extracellular domain; also called human Axl; hAxl
- T1 sequence (looked up): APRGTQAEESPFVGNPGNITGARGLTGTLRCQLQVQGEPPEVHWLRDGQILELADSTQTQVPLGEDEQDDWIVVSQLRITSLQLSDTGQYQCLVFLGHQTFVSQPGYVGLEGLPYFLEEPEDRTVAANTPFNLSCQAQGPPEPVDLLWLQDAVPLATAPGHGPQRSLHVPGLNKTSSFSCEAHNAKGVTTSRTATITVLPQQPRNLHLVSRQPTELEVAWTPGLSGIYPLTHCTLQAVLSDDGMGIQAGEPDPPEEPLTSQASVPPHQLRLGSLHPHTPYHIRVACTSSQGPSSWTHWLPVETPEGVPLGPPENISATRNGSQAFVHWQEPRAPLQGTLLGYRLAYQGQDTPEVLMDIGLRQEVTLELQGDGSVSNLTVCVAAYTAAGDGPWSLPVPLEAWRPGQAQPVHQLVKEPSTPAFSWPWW
- Test description: ELISA, 1:3 dilution, pH 6.0 over pH 7.4
Give just the numeric value; ratio need not be written.

Answered examples (8):
Binder	Result value
HC-W110D (antibody, V domains shown) VH: EVQLVQSGAEVKKPGATVKISCKVSGYSFTGHTMNWIRQPPGKGLEWIGLIKPSNGGTSYNQKFKGRVTISADKSISTAYLQWSSLKASDTAMYYCAHGHYESYFAMDYDGQGTLVTVSS VL: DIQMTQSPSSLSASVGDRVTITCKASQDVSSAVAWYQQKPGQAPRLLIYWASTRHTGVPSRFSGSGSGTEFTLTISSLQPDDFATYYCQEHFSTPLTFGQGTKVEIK	3.72
HC-F105N (antibody, V domains shown) VH: EVQLVQSGAEVKKPGATVKISCKVSGYSFTGHTMNWIRQPPGKGLEWIGLIKPSNGGTSYNQKFKGRVTISADKSISTAYLQWSSLKASDTAMYYCAHGHYESYNAMDYWGQGTLVTVSS VL: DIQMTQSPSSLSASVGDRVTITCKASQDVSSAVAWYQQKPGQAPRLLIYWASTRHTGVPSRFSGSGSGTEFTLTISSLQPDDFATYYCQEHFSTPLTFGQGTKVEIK	2.36
HC-S059I (antibody, V domains shown) VH: EVQLVQSGAEVKKPGATVKISCKVSGYSFTGHTMNWIRQPPGKGLEWIGLIKPSNGGTIYNQKFKGRVTISADKSISTAYLQWSSLKASDTAMYYCAHGHYESYFAMDYWGQGTLVTVSS VL: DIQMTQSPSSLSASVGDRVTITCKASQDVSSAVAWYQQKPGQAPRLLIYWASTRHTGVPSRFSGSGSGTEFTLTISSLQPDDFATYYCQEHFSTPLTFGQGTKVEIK	30.5
HC-F105V (antibody, V domains shown) VH: EVQLVQSGAEVKKPGATVKISCKVSGYSFTGHTMNWIRQPPGKGLEWIGLIKPSNGGTSYNQKFKGRVTISADKSISTAYLQWSSLKASDTAMYYCAHGHYESYVAMDYWGQGTLVTVSS VL: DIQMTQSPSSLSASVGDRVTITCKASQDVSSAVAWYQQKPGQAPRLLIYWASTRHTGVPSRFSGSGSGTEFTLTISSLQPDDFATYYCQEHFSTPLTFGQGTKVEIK	2.43
HC-E102H (antibody, V domains shown) VH: EVQLVQSGAEVKKPGATVKISCKVSGYSFTGHTMNWIRQPPGKGLEWIGLIKPSNGGTSYNQKFKGRVTISADKSISTAYLQWSSLKASDTAMYYCAHGHYHSYFAMDYWGQGTLVTVSS VL: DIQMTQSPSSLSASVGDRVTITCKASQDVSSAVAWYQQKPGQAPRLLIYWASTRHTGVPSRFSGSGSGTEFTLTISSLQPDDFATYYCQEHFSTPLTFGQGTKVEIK	2.08
HC-A106L (antibody, V domains shown) VH: EVQLVQSGAEVKKPGATVKISCKVSGYSFTGHTMNWIRQPPGKGLEWIGLIKPSNGGTSYNQKFKGRVTISADKSISTAYLQWSSLKASDTAMYYCAHGHYESYFLMDYWGQGTLVTVSS VL: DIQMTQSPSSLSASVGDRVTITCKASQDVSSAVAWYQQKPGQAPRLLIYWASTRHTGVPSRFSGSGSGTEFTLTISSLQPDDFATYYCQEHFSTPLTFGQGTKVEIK	21.5
HC-E102M (antibody, V domains shown) VH: EVQLVQSGAEVKKPGATVKISCKVSGYSFTGHTMNWIRQPPGKGLEWIGLIKPSNGGTSYNQKFKGRVTISADKSISTAYLQWSSLKASDTAMYYCAHGHYMSYFAMDYWGQGTLVTVSS VL: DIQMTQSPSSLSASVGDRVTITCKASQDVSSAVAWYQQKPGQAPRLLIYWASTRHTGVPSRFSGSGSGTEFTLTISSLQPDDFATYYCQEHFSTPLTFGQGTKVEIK	2.08
HC-F105T (antibody, V domains shown) VH: EVQLVQSGAEVKKPGATVKISCKVSGYSFTGHTMNWIRQPPGKGLEWIGLIKPSNGGTSYNQKFKGRVTISADKSISTAYLQWSSLKASDTAMYYCAHGHYESYTAMDYWGQGTLVTVSS VL: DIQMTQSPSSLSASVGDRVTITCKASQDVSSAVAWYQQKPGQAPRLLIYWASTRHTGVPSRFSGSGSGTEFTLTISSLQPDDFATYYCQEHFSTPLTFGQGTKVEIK	3.46

Field: next binder
The reported Affinity ELISA CPE mutant ratio (1:3, pH 6.0/7.4) of the binder HC-S059T (antibody, V domains shown) VH: EVQLVQSGAEVKKPGATVKISCKVSGYSFTGHTMNWIRQPPGKGLEWIGLIKPSNGGTTYNQKFKGRVTISADKSISTAYLQWSSLKASDTAMYYCAHGHYESYFAMDYWGQGTLVTVSS VL: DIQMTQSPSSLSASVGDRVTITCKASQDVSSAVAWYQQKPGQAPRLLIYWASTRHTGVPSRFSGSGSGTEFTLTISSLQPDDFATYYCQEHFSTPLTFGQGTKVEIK was 1.02
